Numbers sourced from patent US20260184768A1.

molecular target: T1, full-length PcrV.6xhis (Pseudomonas aeruginosa); experiment: SPR (Biacore T200), mAb captured via anti-human Fc, PcrV injected, 25 C
T1 construct: Recombinant full-length V-tip protein of the type 3 secretion system, His-tagged; also called full-length PcrV with a C-terminal hexahistidine tag
MEASURED QUANTITY: kon (M⁻¹ s⁻¹)

binder="H1H29332P (antibody, V domains shown) VH: EVQLVESGGDLVQPGGSLRLSCKASGFTFSTFAMNWVRQAPGRGLEWVSAIGASGYSTYYVDSMKGRFTISRDNSKNTLYLQMNSLGAEDTAVYYCAKEYSVSSNYYYGMDVWGQGTTVTVSS VL: DIQMTQSPSSLSASVGDRVTITCRASQTIRRYLNWYQQKAGKAPKLLIYAASSLLSGVPSRFSASGSGTDFTLTISSLQPEDFSTYYCQQTYSIPITFGQGTRLEIKR" result_number=237000
binder="H1H29339P (antibody, V domains shown) VH: EVQLVESGGDLVQPGGSLRLSCAASGFTFNTYAMNWVRQAPGKGLEWVAVIGGSGYSTNYADSVKGRFTISRDNSKNTLYLQMNSLRTEDTAVYYCAKEGNIVALYWYFDLWGRGTLVTVSS VL: DIQMTQSPSSLSASVGDRVTITCRASQSISRYLNWYQQKPGKAPKLLIYAASSLQGGVPSKFSGSGSGTDFTLTISSLQPEDFATYYCQQSSTTPLTFGGGTKVEIKR" result_number=365000
binder="REGN3977 (antibody, V domains shown, also called Control III; REGN3977-Control III) VH: QVQLKQSGPGLVQPSQSLSITCTVSGFSLTSYGVHWVRQSPGKGLEWLGVIWSGGDTDYNAAFISRLSISKDNSKSQLFFKMNSLRATDTAIYYCARNRGDIYYDFTYAMDYWGQGTSVTVSS VL: DIQMTQSPASLSASVGETVTITCRASGNIQNYLAWYQQTQGKSPQLLVYSAKTLADGVPSRFSGSGSGTQYSLKINSLQPEDFGSYYCQHFWSTPYTFGGGTKLEIKR" result_number=207000
